B1: HDV Ribozyme (parent)
chain: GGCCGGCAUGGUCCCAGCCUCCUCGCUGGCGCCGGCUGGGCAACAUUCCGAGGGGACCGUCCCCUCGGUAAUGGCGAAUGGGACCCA

Variants of: B1
Assay: self-cleavage, relative activity (ratio to wild type); higher = more cleavage; co-transcriptional
MEASUREMENT KIND: self-cleavage
Give bare numbers.

{"VAR": "U37G C63U", "self-cleavage": 0.151}

Return reported self-cleavage values for all items listed beneath this line.
1. C13G A70C
2. A71C A87G
3. G59C C75U
4. G10U A51C
5. G1A C85U

1. 0
2. 0.993
3. 0.233
4. 1.09
5. 0.0755

Hello, I would appreciate it if you could give self-cleavage for each entry below.
1. U37C C75U
2. C24U A71U
3. G1U C85U
4. G2A G67A
5. G11C C18A
6. C7U G29C

1. 0.0997
2. 0.587
3. 0.321
4. 0.11
5. 0.0804
6. 0.185

Go through the items and report each one's self-cleavage.
1. C30G C44U
2. G31A G80C
3. G38U A70G
4. C21A U79A
5. G54A G76A
6. U23G C84U
7. C15G G25U

[0.0213, 0.185, 0.227, 0.125, 0.923, 0.342, 0.0354]

Report self-cleavage for every entry below.
1. C66U G68U
2. C58A C64A
3. G34A U72G
4. U23C C61U
5. C15U G55U
6. U27G G31U
7. C24A C84A
8. A71G U79G

1: 0.935; 2: 0.962; 3: 0.0326; 4: 0.975; 5: 0.729; 6: 0.293; 7: 0.787; 8: 0.256

# per-item lookup of self-cleavage; items listed below
1. G2A G81A
2. G29A C48A

[0.0692, 0.262]
